# Target: recombinant human ACC2 (rhACC2) (Homo sapiens (Human))
# Sequence (O00763 whole entry V2141I): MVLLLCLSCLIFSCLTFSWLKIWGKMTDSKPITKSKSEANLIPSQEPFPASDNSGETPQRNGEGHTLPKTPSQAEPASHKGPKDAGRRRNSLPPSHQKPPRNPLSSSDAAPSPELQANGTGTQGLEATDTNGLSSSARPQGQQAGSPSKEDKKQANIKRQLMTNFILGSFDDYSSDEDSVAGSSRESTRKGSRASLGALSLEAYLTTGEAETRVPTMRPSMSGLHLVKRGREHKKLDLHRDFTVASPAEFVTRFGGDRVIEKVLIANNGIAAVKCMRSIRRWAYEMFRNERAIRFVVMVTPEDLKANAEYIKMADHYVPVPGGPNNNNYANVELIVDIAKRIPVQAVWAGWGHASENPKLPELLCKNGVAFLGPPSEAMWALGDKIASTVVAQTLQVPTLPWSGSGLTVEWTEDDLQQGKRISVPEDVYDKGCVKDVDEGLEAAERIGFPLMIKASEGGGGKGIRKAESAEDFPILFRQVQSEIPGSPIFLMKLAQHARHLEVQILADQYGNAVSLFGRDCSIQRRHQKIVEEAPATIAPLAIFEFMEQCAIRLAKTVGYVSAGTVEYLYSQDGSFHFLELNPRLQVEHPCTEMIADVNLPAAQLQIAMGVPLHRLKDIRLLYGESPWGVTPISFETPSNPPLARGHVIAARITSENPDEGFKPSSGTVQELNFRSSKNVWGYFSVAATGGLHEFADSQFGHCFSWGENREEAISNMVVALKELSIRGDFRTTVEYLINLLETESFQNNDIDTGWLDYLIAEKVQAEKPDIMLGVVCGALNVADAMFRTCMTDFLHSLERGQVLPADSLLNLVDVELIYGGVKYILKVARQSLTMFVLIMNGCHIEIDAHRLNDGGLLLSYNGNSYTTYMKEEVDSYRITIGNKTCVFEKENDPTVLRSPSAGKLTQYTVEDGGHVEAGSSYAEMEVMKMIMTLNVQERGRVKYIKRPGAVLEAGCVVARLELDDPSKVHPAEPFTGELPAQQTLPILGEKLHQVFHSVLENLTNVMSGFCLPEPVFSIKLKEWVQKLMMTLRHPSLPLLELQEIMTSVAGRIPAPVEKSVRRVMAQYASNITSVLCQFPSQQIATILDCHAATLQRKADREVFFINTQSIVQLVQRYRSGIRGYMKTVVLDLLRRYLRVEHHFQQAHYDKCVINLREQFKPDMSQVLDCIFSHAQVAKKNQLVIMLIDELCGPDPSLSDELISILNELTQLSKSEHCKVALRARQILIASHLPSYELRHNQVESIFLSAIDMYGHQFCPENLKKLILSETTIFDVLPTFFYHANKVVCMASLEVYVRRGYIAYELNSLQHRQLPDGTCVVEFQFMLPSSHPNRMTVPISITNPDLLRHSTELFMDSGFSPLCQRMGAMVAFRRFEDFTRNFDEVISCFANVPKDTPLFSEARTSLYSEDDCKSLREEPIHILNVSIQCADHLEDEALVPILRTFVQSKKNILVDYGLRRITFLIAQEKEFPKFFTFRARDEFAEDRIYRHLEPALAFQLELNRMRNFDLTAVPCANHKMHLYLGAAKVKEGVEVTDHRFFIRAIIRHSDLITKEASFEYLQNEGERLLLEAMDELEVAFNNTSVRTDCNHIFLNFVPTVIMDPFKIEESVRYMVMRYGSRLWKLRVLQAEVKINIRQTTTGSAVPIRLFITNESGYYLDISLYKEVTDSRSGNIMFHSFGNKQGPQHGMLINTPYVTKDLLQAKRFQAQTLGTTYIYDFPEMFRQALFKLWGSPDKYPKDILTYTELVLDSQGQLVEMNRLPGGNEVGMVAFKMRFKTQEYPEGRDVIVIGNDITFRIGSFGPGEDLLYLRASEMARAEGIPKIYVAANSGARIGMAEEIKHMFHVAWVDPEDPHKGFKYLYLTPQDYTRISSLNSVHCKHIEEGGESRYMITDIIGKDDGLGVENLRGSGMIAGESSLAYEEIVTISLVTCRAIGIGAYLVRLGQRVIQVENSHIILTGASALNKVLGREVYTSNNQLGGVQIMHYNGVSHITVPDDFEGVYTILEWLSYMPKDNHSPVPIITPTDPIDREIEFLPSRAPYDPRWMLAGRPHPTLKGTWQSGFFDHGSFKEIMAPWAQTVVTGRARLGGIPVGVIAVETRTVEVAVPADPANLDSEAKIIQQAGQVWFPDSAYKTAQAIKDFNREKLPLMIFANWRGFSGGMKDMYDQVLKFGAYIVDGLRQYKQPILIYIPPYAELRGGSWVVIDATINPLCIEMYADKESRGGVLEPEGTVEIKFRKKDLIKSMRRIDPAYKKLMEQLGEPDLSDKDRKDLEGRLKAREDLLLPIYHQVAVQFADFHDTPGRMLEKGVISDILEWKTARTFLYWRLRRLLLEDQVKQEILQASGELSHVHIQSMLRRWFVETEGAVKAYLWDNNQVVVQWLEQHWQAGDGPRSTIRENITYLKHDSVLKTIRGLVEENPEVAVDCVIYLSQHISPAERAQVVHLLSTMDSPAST
# Protocol description: recombinant hACC2 Transcreener ADP detection FP assay
# Experimental setup: 50 uM ATP, 50 min at 25° C.
Property measured: IC50 (nM)
Entry rule: numbers only, all in nM.

Worked cases, answers included:
>  <Smiles code>
CC(C)(C)Nc1nccc2ccc(C(=O)N3CCC4(CC3)Cc3cn(C(C)(C)C)nc3C(=O)N4)cc12

>  <Recorded number>
6.3

$$$$
>  <Smiles code>
CC(C)(C)n1cc2c(n1)C(=O)NC1(CCN(C(=O)c3ccc4c(N)n[nH]c4c3)CC1)C2

>  <Recorded number>
56

$$$$
>  <Smiles code>
CC(C)(C)n1cc2c(n1)C(=O)NC1(CCN(C(=O)c3ccc4ccnc(NC5CC5)c4c3)CC1)C2

>  <Recorded number>
2.9

$$$$

// query Sample "CC(C)(C)n1cc2c(n1)C(=O)NC1(CCN(C(=O)c3ccc4c(N)nccc4c3)CC1)C2" — what was its IC50?
// result 26

###

# Target: recombinant human ACC2 (rhACC2) (Homo sapiens (Human))
# Protocol description: recombinant hACC2 Transcreener ADP detection FP assay
# Format: biochemical
# Experimental setup: 50 uM ATP, 50 min at 25° C.
Catalogue of compounds with associated log10(IC50)
Remember, log10 of IC50, in nM.

>  <Smiles code>
CC(C)n1ncc2c1C(=O)NC1(CCN(C(=O)c3cnc4[nH]ccc4c3)CC1)C2

>  <Target>
recombinant human ACC2 (rhACC2) (Homo sapiens (Human))

>  <log10(IC50)>
2.75

$$$$
>  <Smiles code>
CNc1cc2ccc(C(=O)N3CCC4(CC3)Cc3cn(C(C)(C)C)nc3C(=O)N4)cc2cn1

>  <Target>
recombinant human ACC2 (rhACC2) (Homo sapiens (Human))

>  <log10(IC50)>
0.96

$$$$
>  <Smiles code>
CC(C)(C)n1cc2c(n1)C(=O)NC1(CCN(C(=O)c3ccc4[nH]nc(C#N)c4c3)CC1)C2

>  <Target>
recombinant human ACC2 (rhACC2) (Homo sapiens (Human))

>  <log10(IC50)>
1.15

$$$$
>  <Smiles code>
Cc1nc2cc(C(=O)N3CCC4(CC3)Cc3cnn(C(C)C)c3C(=O)N4)ccc2[nH]1

>  <Target>
recombinant human ACC2 (rhACC2) (Homo sapiens (Human))

>  <log10(IC50)>
2.49

$$$$
>  <Smiles code>
COc1cccc2cc(C(=O)N3CCC4(CC3)Cc3cn(C(C)(C)C)nc3C(=O)N4)cnc12

>  <Target>
recombinant human ACC2 (rhACC2) (Homo sapiens (Human))

>  <log10(IC50)>
1.83

$$$$
>  <Smiles code>
CNc1nc2cc(C(=O)N3CCC4(CC3)Cc3cnn(C(C)C)c3C(=O)N4)ccc2[nH]1

>  <Target>
recombinant human ACC2 (rhACC2) (Homo sapiens (Human))

>  <log10(IC50)>
2.03

$$$$

// query Sample "COc1cccc2ncc(C(=O)N3CCC4(CC3)Cc3cn(C(C)(C)C)nc3C(=O)N4)cc12" — what was its log10(IC50)?
// result 0.51

// query What about this compound? "COc1cc(C(=O)N2CCC3(CC2)Cc2cn(C(C)(C)C)nc2C(=O)N3)cc2c(C)n[nH]c12"
// result 0.32

// query What about this compound? "COc1nccc2ccc(C(=O)N3CCC4(CC3)Cc3cnn(C(C)C)c3C(=O)N4)cc12"
// result 1.48

// query What about this compound? "CNc1nccc2cc(C(=O)N3CCC4(CC3)Cc3cn(C(C)(C)C)nc3C(=O)N4)ccc12"
// result 1.71

// query What about this compound? "CC(C)(C)n1cc2c(n1)C(=O)NC1(CCN(C(=O)c3ccc4c(C(F)(F)F)n[nH]c4c3)CC1)C2"
// result 1.28

// query What about this compound? "COc1ccc2ccc(C(=O)N3CCC4(CC3)Cc3cn(C(C)(C)C)nc3C(=O)N4)cc2c1"
// result 0.58

// query What about this compound? "COc1cccc2ccc(C(=O)N3CCC4(CC3)Cc3cn(C(C)(C)C)nc3C(=O)N4)cc12"
// result 0.38

// query What about this compound? "CC(C)n1ncc2c1C(=O)NC1(CCN(C(=O)c3cc4ncccc4[nH]3)CC1)C2"
// result 2.86

// query What about this compound? "CCCNc1nccc2ccc(C(=O)N3CCC4(CC3)Cc3cn(C(C)(C)C)nc3C(=O)N4)cc12"
// result 0.40

// query What about this compound? "CC(C)(C)n1cc2c(n1)C(=O)NC1(CCN(C(=O)c3ccc4c(C#N)n[nH]c4c3)CC1)C2"
// result 1.11

// query What about this compound? "CC(C)(C)n1cc2c(n1)C(=O)NC1(CCN(C(=O)c3ccc4cc(N)ncc4c3)CC1)C2"
// result 1.36

// query What about this compound? "COc1cc(C(=O)N2CCC3(CC2)Cc2cnn(C(C)C)c2C(=O)N3)nc2c(OC)cccc12"
// result 1.49

// query What about this compound? "Cc1cc(C(=O)N2CCC3(CC2)Cc2cnn(C(C)(C)C)c2C(=O)N3)cc2cn[nH]c12"
// result 1.67

// query What about this compound? "CC(C)Nc1nccc2ccc(C(=O)N3CCC4(CC3)Cc3cn(C(C)(C)C)nc3C(=O)N4)cc12"
// result 0.67

// query What about this compound? "Cn1[nH]c2cc(C(=O)N3CCC4(CC3)Cc3cn(C(C)(C)C)nc3C(=O)N4)ccc2c1=O"
// result 1.52
